Value source: paper PMC3324464

Task for the reader: assign each of the following substances its reported pKd.
# MEASURED TARGET: GST-Als5 (Candida albicans)
# Construct: made in house; host or cells: E. coli BL21(DE3)
# Sequence (Q5A8T7 1-1327): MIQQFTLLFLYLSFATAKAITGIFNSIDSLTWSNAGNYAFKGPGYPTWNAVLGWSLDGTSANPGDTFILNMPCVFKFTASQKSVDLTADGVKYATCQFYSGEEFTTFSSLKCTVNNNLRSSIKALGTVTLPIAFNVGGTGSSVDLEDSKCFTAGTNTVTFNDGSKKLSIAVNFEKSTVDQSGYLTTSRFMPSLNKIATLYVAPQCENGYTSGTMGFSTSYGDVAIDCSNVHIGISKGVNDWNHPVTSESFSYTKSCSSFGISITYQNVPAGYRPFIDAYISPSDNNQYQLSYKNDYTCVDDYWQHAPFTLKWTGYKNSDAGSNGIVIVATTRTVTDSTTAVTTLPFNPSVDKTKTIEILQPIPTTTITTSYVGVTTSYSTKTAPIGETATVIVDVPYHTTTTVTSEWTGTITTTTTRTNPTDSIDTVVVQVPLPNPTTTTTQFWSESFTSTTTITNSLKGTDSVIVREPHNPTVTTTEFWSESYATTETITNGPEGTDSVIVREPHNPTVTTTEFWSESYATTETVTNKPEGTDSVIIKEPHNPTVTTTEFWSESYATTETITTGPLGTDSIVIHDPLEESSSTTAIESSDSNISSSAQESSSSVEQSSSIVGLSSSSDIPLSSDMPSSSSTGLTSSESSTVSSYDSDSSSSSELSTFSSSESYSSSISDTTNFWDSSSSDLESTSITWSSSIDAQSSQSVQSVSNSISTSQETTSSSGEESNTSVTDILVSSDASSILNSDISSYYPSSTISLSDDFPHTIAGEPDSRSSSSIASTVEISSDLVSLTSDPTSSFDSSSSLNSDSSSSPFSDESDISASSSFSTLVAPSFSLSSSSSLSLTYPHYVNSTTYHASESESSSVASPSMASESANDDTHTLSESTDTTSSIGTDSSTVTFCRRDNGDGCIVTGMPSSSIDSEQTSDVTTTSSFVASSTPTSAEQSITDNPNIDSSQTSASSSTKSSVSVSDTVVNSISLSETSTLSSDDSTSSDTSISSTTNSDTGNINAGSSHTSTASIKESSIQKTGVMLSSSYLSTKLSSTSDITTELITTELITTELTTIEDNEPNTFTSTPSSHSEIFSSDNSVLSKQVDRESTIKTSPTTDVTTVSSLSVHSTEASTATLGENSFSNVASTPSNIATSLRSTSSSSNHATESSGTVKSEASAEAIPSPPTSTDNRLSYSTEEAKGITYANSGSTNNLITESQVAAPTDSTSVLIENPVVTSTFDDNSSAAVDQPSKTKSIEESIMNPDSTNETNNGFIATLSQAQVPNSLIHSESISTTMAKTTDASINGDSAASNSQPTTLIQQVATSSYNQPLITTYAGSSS
# EXPERIMENTAL PROTOCOL: biochemical
# Type: binding
# EXPERIMENTAL CONDITIONS: Kd, 42 °C; 0.02 mg/ml protein, excitation 295 nm, one-site saturation model
Ends that are not written are not given here.
Answers are plain numbers, as −log10 of the molar value.

1) EHAHTPR [EHAHTPR] :: 7.47

Pending substance:
Notebook entry, GST-Als5 (Candida albicans) assay: pKd of AYKSLMT [AYKSLMT] = ? 8.05
